quantity: melting point

Here is how some compounds turned out for melting point.
CNc1ccc(OC2CCN(c3ccncc3)CC2)cc1 :: 161 to 164 °C
FC(F)(F)c1cc(CO[C@@H]2CCCN(Cc3ccco3)[C@@H]2c2ccccc2)cc(C(F)(F)F)c1 (relative stereo) :: 103 to 104 °C
Nc1ncnc2c1nc(NCCP(=O)(O)O)n2C1OC(CO)C(O)C1O (stereo not given) :: 175 °C
Cc1ccc(S(=O)(=O)NCCN2C(=O)C3(CCCC3)c3ccccc32)cc1 :: 60 °C

Please turn your attention to the following entry.
**Query** Record request: melting point value, item COC(=O)c1cc2cc(OC)c(OCCCl)cc2nc1N=CN(C)C
**Result** 108 to 110 °C

// data source = a melting point compilation (Tetko et al.; mined from patent text by program, amines drawn as free bases though some values may be those of a salt)
